Each entry below carries its recorded MIC.
# Tested on: Staphylococcus aureus
# ASSAY_REMARKS: Antibacterial activity against Staphylococcus aureus after 24 hrs by serial broth dilution test
# Type: functional
// units = µg/mL; emit number, no label

Identify the reported MIC for the following entry. CCCc1c2c(OC)c(OC)cc(Br)c2cc2[n+]1CCc1cc3c(cc1-2)OCO3.[Cl-]
15.6

---

# Test system: Bacillus subtilis
# ASSAY_REMARKS: Antibacterial activity against Bacillus subtilis after 24 hrs by serial broth dilution test
# Format: functional
Output T for records whose MIC is lower than 30 µg/mL, F for records at or above 30 µg/mL.

INSERT INTO measurements (compound, qualitative_label) VALUES
  ('NC[C@H]1O[C@H](O[C@H]2[C@H](O)[C@@H](O[C@H]3O[C@H](CO)[C@@H](O)[C@H](N)[C@H]3O)[C@H](N)C[C@@H]2N)[C@H](O)[C@@H](O)[C@@H]1O.O=S(=O)(O)O [KANAMYCIN SULFATE]', 'T');

# strict comparison: is reported MIC < 30 µg/mL? input = COc1ccc2cc3[n+](c(-c4ccccc4)c2c1OC)CCc1cc2c(cc1-3)OCO2.[Cl-]
F

# strict comparison: is reported MIC < 30 µg/mL? input = CCCc1c2c(OC)c(OC)cc(Br)c2cc2[n+]1CCc1cc3c(cc1-2)OCO3.[Cl-]
T

# strict comparison: is reported MIC < 30 µg/mL? input = CCCc1c2c(OC)c(OC)ccc2cc2[n+]1CCc1cc3c(cc1-2)OCO3.[Cl-]
F

---

# System: Staphylococcus aureus
# ASSAY_REMARKS: Antibacterial activity against Staphylococcus aureus after 24 hrs by serial broth dilution test
# Format: functional
RECORDED_METRIC: log10 MIC (log10 of the value in µg/mL)
Hello, just confirming the data are log10 of MIC with units of µg/mL.

INSERT INTO measurements (molecule, observed) VALUES
  ('CCCCc1c2c(OC)c(OC)ccc2cc2[n+]1CCc1cc3c(cc1-2)OCO3.[Cl-]', 1.19),
  ('CCc1c2c(OC)c(OC)ccc2cc2[n+]1CCc1cc3c(cc1-2)OCO3.[Cl-]', 1.80),
  ('CCCCc1c2c(OC)c(OC)cc(Br)c2cc2[n+]1CCc1cc3c(cc1-2)OCO3.[Cl-]', 0.89),
  ('COc1ccc2cc3[n+](c(-c4ccccc4)c2c1OC)CCc1cc2c(cc1-3)OCO2.[Cl-]', 1.80),
  ('COc1ccc2cc3[n+](cc2c1OC)CCc1cc2c(cc1-3)OCO2.[Cl-] [BERBERINE CHLORIDE]', 2.40);

Identify the reported log10 MIC for the following entry. COc1cc(Br)c2cc3[n+](c(-c4ccccc4)c2c1OC)CCc1cc2c(cc1-3)OCO2.[Cl-]
1.49

---

# Test system: Bacillus subtilis
# ASSAY_REMARKS: Antibacterial activity against Bacillus subtilis after 24 hrs by serial broth dilution test
# Assay type: functional
Output rule met for records whose MIC is lower than 30 µg/mL, rule not met for records at or above 30 µg/mL.

Record excerpt, results attached:
INSERT INTO results (compound, qualitative_label) VALUES
  ('COc1cc(Br)c2cc3[n+](c(-c4ccccc4)c2c1OC)CCc1cc2c(cc1-3)OCO2.[Cl-]', 'rule not met'),
  ('CCc1c2c(OC)c(OC)cc(Br)c2cc2[n+]1CCc1cc3c(cc1-2)OCO3.[Cl-]', 'rule not met'),
  ('COc1ccc2cc3[n+](c(C)c2c1OC)CCc1cc2c(cc1-3)OCO2.[Cl-]', 'rule not met');

# strict comparison: is reported MIC < 30 µg/mL? input = CCc1c2c(OC)c(OC)ccc2cc2[n+]1CCc1cc3c(cc1-2)OCO3.[Cl-]
rule not met

# strict comparison: is reported MIC < 30 µg/mL? input = COc1cc(Br)c2cc3[n+](cc2c1OC)CCc1cc2c(cc1-3)OCO2.[Cl-]
rule not met

# strict comparison: is reported MIC < 30 µg/mL? input = CCCCCCc1c2c(OC)c(OC)cc(Br)c2cc2[n+]1CCc1cc3c(cc1-2)OCO3.[Cl-]
rule met

# strict comparison: is reported MIC < 30 µg/mL? input = CCCCc1c2c(OC)c(OC)cc(Br)c2cc2[n+]1CCc1cc3c(cc1-2)OCO3.[Cl-]
rule met

# strict comparison: is reported MIC < 30 µg/mL? input = CCCCc1c2c(OC)c(OC)ccc2cc2[n+]1CCc1cc3c(cc1-2)OCO3.[Cl-]
rule not met

# strict comparison: is reported MIC < 30 µg/mL? input = COc1ccc2cc3[n+](cc2c1OC)CCc1cc2c(cc1-3)OCO2.[Cl-] [BERBERINE CHLORIDE]
rule not met
